Known viability at 200 µM of a selection of molecules
test system: MCF7; assay: Antiproliferative activity against human MCF7 cells assessed as cell viability at 200 uM after 72 hrs by MTT assay; assay type: functional; details: MCF7, 72 h, read-out: Activity
Just the number in %, nothing appended.

molecule	measurement.target	viability at 200 µM [%]
COC(C(=O)OC(C)Cn1cnc2c1c(=O)n(C)c(=O)n2C)c1cccc2ccccc12 (configuration not stated)	MCF7	76.9
CC(Cn1cnc2c1c(=O)n(C)c(=O)n2C)OC(=O)N1c2ccccc2Sc2ccccc21 (configuration not stated)	MCF7	37
Cc1ccc(C(=O)CC(=O)OC(C)Cn2cnc3c2c(=O)n(C)c(=O)n3C)cc1 (configuration not stated)	MCF7	82.7
COC(C(=O)OC(C)Cn1cnc2c1c(=O)n(C)c(=O)n2C)c1ccc(C(C)(C)C)cc1 (configuration not stated)	MCF7	35
CC(Cn1cnc2c1c(=O)n(C)c(=O)n2C)OCc1cn(CCCn2cnc3c(Br)c(Br)c(Br)c(Br)c32)nn1 (configuration not stated)	MCF7	4.1

viability at 200 µM in this record for COC(C(=O)OC(C)Cn1cnc2c1c(=O)n(C)c(=O)n2C)c1ccc2ccccc2c1 (configuration not stated) : 68.8

viability at 200 µM in this record for CC(Cn1cnc2c1c(=O)n(C)c(=O)n2C)OCc1cn(-c2cccc3ccccc23)nn1 (configuration not stated) : 77

viability at 200 µM in this record for CC(Cn1cnc2c1c(=O)n(C)c(=O)n2C)OCc1cn(CCCn2nc3c(Br)c(Br)c(Br)c(Br)c3n2)nn1 (configuration not stated) : 53.7

viability at 200 µM in this record for CC(CN1c2ccccc2Sc2ccccc21)OC(=O)OC(C)Cn1cnc2c1c(=O)n(C)c(=O)n2C (configuration not stated) : 20.8

viability at 200 µM in this record for `Brc1c(Br)c(Br)c2[nH]cnc2c1Br` : 1.7

viability at 200 µM in this record for CC(Cn1cnc2c1c(=O)n(C)c(=O)n2C)OC(=O)CC(=O)c1ccccc1 (configuration not stated) : 81.8

viability at 200 µM in this record for CC(Cn1cnc2c1c(=O)n(C)c(=O)n2C)OC(=O)C(c1ccccc1)c1ccccc1 (configuration not stated) : 43.5

====

system: Candida albicans; experiment: Growth inhibition of Candida albicans ATCC 90028 at 0.0313 ug/ml incubated for 18 hrs at 35 degC by broth microdilution method relative to control; type: functional; conditions: ATCC 90028, 18 h, read-out: GI
quantity.name: inhibition of growth at 0.0313 µg/mL (%)
Just the number in %, nothing appended.

Use the examples below as a reference point.
molecule	unit.abbreviation	inhibition of growth at 0.0313 µg/mL
CC(CN1c2ccccc2Sc2ccccc21)OC(=O)OC(C)Cn1cnc2c1c(=O)n(C)c(=O)n2C (centres undefined)	%	99.6
Cc1ccc(C(=O)CC(=O)OC(C)Cn2cnc3c2c(=O)n(C)c(=O)n3C)cc1 (centres undefined)	%	100
CC(Cn1cnc2c1c(=O)n(C)c(=O)n2C)OC(=O)N1c2ccccc2Sc2ccccc21 (centres undefined)	%	100
COC(C(=O)OC(C)Cn1cnc2c1c(=O)n(C)c(=O)n2C)c1ccc2ccccc2c1 (centres undefined)	%	99
CC(Cn1cnc2c1c(=O)n(C)c(=O)n2C)OC(=O)Sc1ccccc1 (centres undefined)	%	99.8

inhibition of growth at 0.0313 µg/mL in this record for CC(Cn1cnc2c1c(=O)n(C)c(=O)n2C)OC(=O)CC(=O)c1ccc(F)cc1 (centres undefined) : 99.7

inhibition of growth at 0.0313 µg/mL in this record for CC(Cn1cnc2c1c(=O)n(C)c(=O)n2C)OC(=O)N1c2ccccc2C=Cc2ccccc21 (centres undefined) : 99.8

inhibition of growth at 0.0313 µg/mL in this record for CC(Cn1cnc2c1c(=O)n(C)c(=O)n2C)OC(=O)C(c1ccccc1)c1ccccc1 (centres undefined) : 100

inhibition of growth at 0.0313 µg/mL in this record for CC(Cn1cnc2c1c(=O)n(C)c(=O)n2C)OCc1cn(-c2cccc3ccccc23)nn1 (centres undefined) : 99.9

Value source: ChEMBL document CHEMBL4229342
